Tested on: 293T cells
Experiment: Growth assay (cytotoxicity)
Format: cell-based
Conditions: 5 uM, 2 day incubation
Experimental: A growth assay was performed to evaluate the compounds disclosed herein for cytotoxicity. Briefly, 5,000,000 293T cells were resuspended in 18 mL of cDMEM for a final concentration of 277,777 cells/mL. […] Absorbance was then measured at about […] (lower for more acidic media) and about […] (higher for more acidic media).
Counter-ions that a name gives are not always drawn.
OBSERVABLE: % Growth at 5 uM

[
  {
    "COMPOUND": "CCc1cc(-c2ccc(NS(=O)(=O)c3ccccc3Cl)nc2OC)cc2cnc(N[C@H]3CC[C@H](N)CC3)nc12 [37; HCl ^]",
    "% Growth at 5 uM": "B (B: >25% to ≤50%)"
  },
  {
    "COMPOUND": "CCc1cc(-c2ncc(NS(=O)(=O)c3ccccc3Cl)cn2)cc2cnc(N[C@H]3CC[C@H](N)CC3)nc12.O=CO",
    "% Growth at 5 uM": "C (C: >50% to ≤75%)"
  },
  {
    "COMPOUND": "CCc1cc(-c2cnc(NS(=O)(=O)c3ccccc3Cl)c(F)c2)cc2cnc(N[C@H]3CC[C@H](N)CC3)nc12.O=CO",
    "% Growth at 5 uM": "D (D: >75% to ≤100%)"
  },
  {
    "COMPOUND": "CCc1cc(-c2cc(F)c(NS(=O)(=O)c3ccccc3Cl)cc2C)cc2cnc(N[C@H]3CC[C@H](N)CC3)nc12.O=CO",
    "% Growth at 5 uM": "B (B: >25% to ≤50%)"
  },
  {
    "COMPOUND": "CCc1cc(-c2ccc(NS(=O)(=O)c3ccccc3Cl)cn2)cc2cnc(N[C@H]3CC[C@H](N)CC3)nc12.O=CO",
    "% Growth at 5 uM": "B (B: >25% to ≤50%)"
  },
  {
    "COMPOUND": "CCc1cc(-c2cc(NS(=O)(=O)c3ccccc3Cl)n[nH]2)cc2cnc(N[C@H]3CC[C@H](N)CC3)nc12.O=CO",
    "% Growth at 5 uM": "D (D: >75% to ≤100%)"
  },
  {
    "COMPOUND": "CCc1cc(-c2ccc(NS(=O)(=O)c3ccccc3Cl)cc2F)cc2cnc(N[C@H]3CC[C@H](N)CC3)nc12.O=CO",
    "% Growth at 5 uM": "B (B: >25% to ≤50%)"
  },
  {
    "COMPOUND": "CCc1cc(-c2nnc(NS(=O)(=O)c3ccccc3Cl)cc2OC)cc2cnc(N[C@H]3CC[C@H](N)CC3)nc12.O=CO",
    "% Growth at 5 uM": "C (C: >50% to ≤75%)"
  },
  {
    "COMPOUND": "CCc1cc(-c2ccc(NS(=O)(=O)c3ccccc3Cl)cc2OC)cc2cnc(N[C@H]3CC[C@H](N)CC3)nc12.O=CO",
    "% Growth at 5 uM": "A (A: ≤25%)"
  },
  {
    "COMPOUND": "CCc1cc(-c2nnc(NS(=O)(=O)c3ccccc3Cl)cc2C)cc2cnc(N[C@H]3CC[C@H](N)CC3)nc12.O=CO",
    "% Growth at 5 uM": "C (C: >50% to ≤75%)"
  }
]

Please supply % Growth at 5 uM for each of the following items, keeping them in order.
1. CCc1cc(-c2cnc(NS(=O)(=O)c3ccccc3Cl)cn2)cc2cnc(N[C@H]3CC[C@H](N)CC3)nc12.O=CO
2. CCc1cc(-c2ccc(NS(=O)(=O)c3ccccc3Cl)cc2)cc2cnc(N[C@H]3CC[C@H](N)CC3)nc12.O=CO
3. CCc1cc(-c2ccc(NS(=O)(=O)c3ccccc3Cl)c(F)c2)cc2cnc(N[C@H]3CC[C@H](N)CC3)nc12.O=CO

1: D (D: >75% to ≤100%); 2: A (A: ≤25%); 3: C (C: >50% to ≤75%)

Origin of values: patent US20180346446A1
